# maps each entry to its EC50
target: cGMP-dependent protein kinase 1 (Homo sapiens); assay: Activation of full length PKG1alpha (unknown origin) using Glass-tide peptide substrate incubated for 120 mins followed by addition of ADP-Glo max reagent incubated for 40 mins
value-type: EC50 (µM)

In [3]: df
Out[3]:
                            structure_string                               test_target  value_type  comparison_symbol  val
 0  COC(=O)Nn1c(C[C@H]2CCC[C@H](OCc3cc(C(F)(F)F)cc(C(F)(F)F)c3)[C@@H]2c2ccccc2)n[nH]c1=O  cGMP-dependent protein kinase 1 (Homo sapiens)        EC50                  =  4.5
 1  O=C(O)c1ccc(CN2CCC[C@H](OCc3cc(Cl)cc(Cl)c3)[C@@H]2c2ccccc2)s1  cGMP-dependent protein kinase 1 (Homo sapiens)        EC50                  =   76
 2  COc1ccc(C(=O)O)cc1CN1CCC[C@H](OCc2cc(Cl)cc(Cl)c2)[C@@H]1c1ccccc1  cGMP-dependent protein kinase 1 (Homo sapiens)        EC50                  =  123
 3  O=C(O)c1cncc(CN2CCC[C@H](O[C@H](CO)c3cc(Cl)cc(Cl)c3)[C@@H]2c2ccccc2)c1  cGMP-dependent protein kinase 1 (Homo sapiens)        EC50                  =   34
 4  Clc1cc(Cl)cc(CO[C@H]2CCCN(Cc3ccncc3)[C@H]2c2ccccc2)c1  cGMP-dependent protein kinase 1 (Homo sapiens)        EC50                  >  200
 5  Clc1cc(Cl)cc(CO[C@H]2CCCN(Cc3cccnc3)[C@H]2c2ccccc2)c1  cGMP-dependent protein kinase 1 (Homo sapiens)        EC50                  =  112
 6  Cn1ccnc1CN1CCC[C@H](OCc2cc(Cl)cc(Cl)c2)[C@@H]1c1ccccc1  cGMP-dependent protein kinase 1 (Homo sapiens)        EC50                  =  165
 7  CN1CCC[C@H](O[C@H](CO)c2cc(Cl)cc(Cl)c2)[C@@H]1c1ccccc1  cGMP-dependent protein kinase 1 (Homo sapiens)        EC50                  =   42
 8  Clc1cc(Cl)cc(CO[C@H]2CCCN(Cc3nccs3)[C@H]2c2ccccc2)c1  cGMP-dependent protein kinase 1 (Homo sapiens)        EC50                  >  200
 9  COc1cc(C(=O)O)ccc1CN1CCC[C@H](OCc2cc(Cl)cc(Cl)c2)[C@@H]1c1ccccc1  cGMP-dependent protein kinase 1 (Homo sapiens)        EC50                  =   62
10  O=C(O)c1ccc(CN2CCC[C@H](OCc3cc(Cl)cc(Cl)c3)[C@@H]2c2ccccc2)cc1  cGMP-dependent protein kinase 1 (Homo sapiens)        EC50                  =   76
11  O=C(O)c1ccc(CN2CCC[C@H](OCc3cc(Cl)cc(Cl)c3)[C@@H]2c2ccccc2)cn1  cGMP-dependent protein kinase 1 (Homo sapiens)        EC50                  >  200
12  Clc1cc(Cl)cc(CO[C@H]2CCCN(Cc3ccc(-c4nn[nH]n4)cc3)[C@H]2c2ccccc2)c1  cGMP-dependent protein kinase 1 (Homo sapiens)        EC50                  =   74
13  Cn1cc(CN2CCC[C@H](OCc3cc(Cl)cc(Cl)c3)[C@@H]2c2ccccc2)cn1  cGMP-dependent protein kinase 1 (Homo sapiens)        EC50                  =  110
14  O=C(O)c1ccc2c(CN3CCC[C@H](O[C@H](CO)c4cc(Cl)cc(Cl)c4)[C@@H]3c3ccccc3)c[nH]c2c1  cGMP-dependent protein kinase 1 (Homo sapiens)        EC50                  =   22
15  CN1CCC[C@H](OCc2cc(Cl)cc(Cl)c2)[C@@H]1c1ccccc1  cGMP-dependent protein kinase 1 (Homo sapiens)        EC50                  >  200
16  Clc1cc(Cl)cc(CO[C@H]2CCCN(Cc3ccccn3)[C@H]2c2ccccc2)c1  cGMP-dependent protein kinase 1 (Homo sapiens)        EC50                  >  200
17  OC[C@@H](O[C@H]1CCCN(Cc2cccc3nonc23)[C@H]1c1ccccc1)c1cc(Cl)cc(Cl)c1  cGMP-dependent protein kinase 1 (Homo sapiens)        EC50                  =    8

----------
assay: Apparent permeability in dog MDCKII cells; type: ADME, cell-based, Canis lupus familiaris, MDCK-II; conditions: MDCK
value-type: Papp (×10⁻⁶ cm/s)

>>> print(df.to_string())
                           structure_string  units_label  val
0  O=C(O)c1ccc(CN2CCC[C@H](O[C@H](CO)c3cc(Cl)cc(Cl)c3)[C@@H]2c2ccccc2)cc1   ×10⁻⁶ cm/s   16
1  Clc1cc(Cl)cc(CO[C@H]2CCCN(Cc3ncc[nH]3)[C@H]2c2ccccc2)c1   ×10⁻⁶ cm/s    2
2  O=C(O)c1ccc2c(CN3CCC[C@H](O[C@H](CO)c4cc(Cl)cc(Cl)c4)[C@@H]3c3ccccc3)c[nH]c2c1   ×10⁻⁶ cm/s    4
3  O=C(O)c1cncc(CN2CCC[C@H](O[C@H](CO)c3cc(Cl)cc(Cl)c3)[C@@H]2c2ccccc2)c1   ×10⁻⁶ cm/s   14
4  OC[C@@H](O[C@H]1CCCN(Cc2ncc[nH]2)[C@H]1c1ccccc1)c1cc(Cl)cc(Cl)c1   ×10⁻⁶ cm/s   19
5  OC[C@@H](O[C@H]1CCCN(Cc2cccc3nonc23)[C@H]1c1ccccc1)c1cc(Cl)cc(Cl)c1   ×10⁻⁶ cm/s   11
6  COC(=O)Nn1c(C[C@H]2CCC[C@H](OCc3cc(C(F)(F)F)cc(C(F)(F)F)c3)[C@@H]2c2ccccc2)n[nH]c1=O   ×10⁻⁶ cm/s   15

----------
# maps each entry to its EC50
molecular target: cGMP-dependent protein kinase 1 (Homo sapiens, UniProt Q13976); assay: Activation of full length PKG1alpha (unknown origin) using Glass-tide peptide substrate incubated for 120 mins followed by addition of ADP-Glo max reagent incubated for 40 mins
Sequence (Q13976 whole entry): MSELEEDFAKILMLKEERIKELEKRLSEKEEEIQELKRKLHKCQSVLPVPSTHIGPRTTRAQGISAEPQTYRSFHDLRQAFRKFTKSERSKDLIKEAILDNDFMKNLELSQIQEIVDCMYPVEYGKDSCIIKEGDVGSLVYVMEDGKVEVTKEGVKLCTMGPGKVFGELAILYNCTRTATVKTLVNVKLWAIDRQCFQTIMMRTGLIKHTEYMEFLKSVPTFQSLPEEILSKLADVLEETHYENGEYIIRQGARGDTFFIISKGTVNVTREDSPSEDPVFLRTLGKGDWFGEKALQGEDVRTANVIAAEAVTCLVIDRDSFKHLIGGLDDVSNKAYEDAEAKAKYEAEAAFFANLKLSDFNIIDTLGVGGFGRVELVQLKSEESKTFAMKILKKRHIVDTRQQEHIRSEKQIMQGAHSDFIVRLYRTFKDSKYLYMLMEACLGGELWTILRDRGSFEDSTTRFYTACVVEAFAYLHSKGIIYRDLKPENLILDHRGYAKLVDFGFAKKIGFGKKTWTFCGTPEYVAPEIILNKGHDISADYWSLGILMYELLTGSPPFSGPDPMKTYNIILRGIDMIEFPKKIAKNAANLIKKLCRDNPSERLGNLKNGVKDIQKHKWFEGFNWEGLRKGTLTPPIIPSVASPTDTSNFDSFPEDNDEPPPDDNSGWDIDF
value-type: EC50

In [3]: df
Out[3]:
                                   compound       val
0  C[C@@H](O[C@H]1OCCN(Cc2n[nH]c(=O)[nH]2)[C@H]1c1ccc(F)cc1)c1cc(C(F)(F)F)cc(C(F)(F)F)c1 [APREPITANT]  > 200 µM
1  Clc1cc(Cl)cc(CO[C@H]2CCCN(Cc3ccccc3)[C@H]2c2ccccc2)c1  > 200 µM
2  Clc1cc(Cl)cc(CO[C@H]2CCCN(Cc3ncco3)[C@H]2c2ccccc2)c1  > 200 µM
